Known residual activity of a selection of compounds
ASSAY_SYSTEM: Insulin receptor-related protein (Homo sapiens)
EXPERIMENTAL_SETUP: at 10 µM
Give the value in % but do not write % after it.

[[record]]
smiles_input = "O=C1NC(=O)c2c1c1c3ccccc3n3c1c1c2c2ccccc2n1C1CCC3O1"
result_value = 63

[[record]]
smiles_input = "COc1cc(OC)c(/C=C2\\C(=O)Nc3ccccc32)c(OC)c1"
result_value = 98

[[record]]
smiles_input = "O=C1Nc2ccc3ncsc3c2/C1=C/c1c[nH]cn1"
result_value = 36

[[record]]
smiles_input = "CC(C)(C)c1cc(C=C(C#N)C#N)cc(Br)c1O"
result_value = 102


Prompt line: Tell me the measured residual activity of `O=[N+]([O-])/C=C/c1ccc2c(c1)OCO2` , please.
Response line: 82

###

Known residual activity of a selection of molecules
ASSAY_SYSTEM: Tyrosine-protein kinase ZAP-70 (Homo sapiens) (UniProt P43403)
Sequence (whole entry): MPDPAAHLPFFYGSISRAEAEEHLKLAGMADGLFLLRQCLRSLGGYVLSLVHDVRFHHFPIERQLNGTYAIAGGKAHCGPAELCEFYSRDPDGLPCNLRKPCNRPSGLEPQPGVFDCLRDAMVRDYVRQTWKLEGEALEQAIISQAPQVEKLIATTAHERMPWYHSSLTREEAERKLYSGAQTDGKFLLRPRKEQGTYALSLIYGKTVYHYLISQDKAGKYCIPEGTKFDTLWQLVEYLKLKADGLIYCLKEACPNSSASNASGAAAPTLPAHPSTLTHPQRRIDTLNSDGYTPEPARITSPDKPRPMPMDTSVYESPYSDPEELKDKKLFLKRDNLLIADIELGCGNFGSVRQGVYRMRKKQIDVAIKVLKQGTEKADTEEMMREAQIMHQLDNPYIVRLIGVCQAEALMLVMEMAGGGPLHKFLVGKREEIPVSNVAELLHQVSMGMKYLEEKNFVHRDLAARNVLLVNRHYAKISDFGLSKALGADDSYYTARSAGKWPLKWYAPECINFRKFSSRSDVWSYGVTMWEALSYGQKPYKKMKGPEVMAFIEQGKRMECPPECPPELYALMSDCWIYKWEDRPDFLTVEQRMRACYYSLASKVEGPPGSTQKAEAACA
EXPERIMENTAL_SETUP: at 1 µM
Give the value in % but do not write % after it.

Example entries and their recorded answers appear below.
[[record]]
smiles_input = "CCn1cnc2c(Nc3cccc(Cl)c3)nc(N[C@@H]3CCCC[C@@H]3N)nc21"
result_value = 93

[[record]]
smiles_input = "COC(=O)[C@@]1(O)C[C@H]2O[C@]1(C)n1c3ccccc3c3c4c(c5c6ccccc6n2c5c31)C(=O)NC4"
result_value = 16


Prompt line: Tell me the measured residual activity of `O=c1[nH]c2ccccc2n1C1CCN(Cc2ccc(-c3nc4cc5[nH]cnc5cc4nc3-c3ccccc3)cc2)CC1` , please.
Response line: 123

Prompt line: Tell me the measured residual activity of `O=[N+]([O-])/C=C/c1ccc2c(c1)OCO2` , please.
Response line: 111

Prompt line: Tell me the measured residual activity of `COc1ccc2c(c[n+](C)c3c4cc5c(cc4ccc23)OCO5)c1OC` , please.
Response line: 119

Prompt line: Tell me the measured residual activity of `O=C1Nc2ccc3ncsc3c2/C1=C/c1c[nH]cn1` , please.
Response line: 102

Prompt line: Tell me the measured residual activity of `COc1cc2ncnc(Nc3ccc(OCc4ccccc4)cc3)c2cc1OC` , please.
Response line: 112
